Each entry below carries its recorded IC50.
studySystem: ABCG2 (Homo sapiens, UniProt Q9UNQ0)
testName: Vanadate-sensitive ATPase activity of ABCG2 in Sf9 membrane preparations
Assay type: biochemical
cond: 10 μM quercetin; cholesterol-loaded Sf9 membranes; mean ± SEM, n=3; read-out: IC50 values, ABCG2 stimulated (quercetin-stimulated) ATPase activity
Report the figure in µM without appending any unit label.

{"columns": ["compound", "studySystem", "outputUnit", "IC50"],
 "data": [
  ["CC1=C(/C=C/C(C)=C/C=C/C(C)=C/CO)C(C)(C)CCC1 [Retinol]", "ABCG2 (Homo sapiens, UniProt Q9UNQ0)", "µM", 95.2]
]}

Query: Which value of IC50 has been reported for CC(=O)OC/C=C(C)/C=C/C=C(C)/C=C/C1=C(C)CCCC1(C)C [Retinyl-acetate] in the records?
Reply: 70.4

Query: Moving on to the next compound: CC1=C(/C=C/C(C)=C/C=C/C(C)=C\C(=O)O)C(C)(C)CCC1 [13-cis-retinoic acid]
Reply: 76.5

---

studySystem: P-gp (human Pgp), basal vanadate-sensitive ATPase activity (Homo sapiens)
Sequence (P08183 whole entry): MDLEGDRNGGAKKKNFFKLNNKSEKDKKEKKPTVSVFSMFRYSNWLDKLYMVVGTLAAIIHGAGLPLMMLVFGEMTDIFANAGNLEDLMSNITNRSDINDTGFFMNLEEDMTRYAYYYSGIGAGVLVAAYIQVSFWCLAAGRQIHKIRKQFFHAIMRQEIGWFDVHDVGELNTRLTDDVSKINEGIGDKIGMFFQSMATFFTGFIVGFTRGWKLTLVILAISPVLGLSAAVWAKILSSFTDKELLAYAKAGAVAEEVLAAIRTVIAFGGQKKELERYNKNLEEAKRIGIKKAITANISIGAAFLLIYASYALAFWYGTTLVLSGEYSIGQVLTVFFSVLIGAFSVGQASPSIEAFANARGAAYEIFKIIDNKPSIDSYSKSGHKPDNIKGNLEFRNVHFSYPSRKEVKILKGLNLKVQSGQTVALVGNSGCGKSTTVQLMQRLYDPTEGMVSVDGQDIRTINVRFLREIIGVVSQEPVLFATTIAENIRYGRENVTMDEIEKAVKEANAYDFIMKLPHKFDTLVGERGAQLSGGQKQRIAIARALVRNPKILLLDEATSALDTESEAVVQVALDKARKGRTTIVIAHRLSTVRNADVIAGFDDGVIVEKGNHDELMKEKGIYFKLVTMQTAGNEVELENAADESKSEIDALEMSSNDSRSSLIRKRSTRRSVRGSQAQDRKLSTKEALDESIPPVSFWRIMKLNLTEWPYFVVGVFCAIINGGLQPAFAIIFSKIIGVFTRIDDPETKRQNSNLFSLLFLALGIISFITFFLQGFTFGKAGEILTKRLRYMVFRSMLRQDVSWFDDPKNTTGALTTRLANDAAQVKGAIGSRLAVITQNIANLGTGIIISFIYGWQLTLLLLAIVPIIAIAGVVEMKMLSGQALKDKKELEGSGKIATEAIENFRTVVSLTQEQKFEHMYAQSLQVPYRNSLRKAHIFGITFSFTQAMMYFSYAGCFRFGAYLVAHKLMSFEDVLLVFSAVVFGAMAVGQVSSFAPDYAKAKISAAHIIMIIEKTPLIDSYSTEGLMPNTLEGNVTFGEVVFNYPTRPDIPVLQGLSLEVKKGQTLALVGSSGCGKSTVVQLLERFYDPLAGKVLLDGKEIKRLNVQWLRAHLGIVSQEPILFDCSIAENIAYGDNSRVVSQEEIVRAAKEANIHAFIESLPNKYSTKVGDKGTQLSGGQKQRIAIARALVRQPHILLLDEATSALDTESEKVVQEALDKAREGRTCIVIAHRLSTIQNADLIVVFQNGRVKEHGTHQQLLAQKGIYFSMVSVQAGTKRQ
testName: in vitro
cond: membranes of Sf9 insect cells expressing human Pgp, IC50 values, 10 min pre-incubation 37 °C, 3 mM ATP/Mg2+ 25 min, mean ± SEM, n=3
reportedMetric: IC50 at 25 min (µM)
Numeric only. Scale: µM

Query: Which IC50 at 25 min is reported for this molecule? CC(=O)OC/C=C(C)/C=C/C=C(C)/C=C/C1=C(C)CCCC1(C)C [Retinyl-acetate]
Reply: 36.8

---

Each entry below carries its recorded IC50.
studySystem: Pgp (Homo sapiens, UniProt P08183)
Sequence (P08183 whole entry): as above
testName: biochemical
cond: IC50 values, Pgp stimulated (verapamil-stimulated) ATPase activity, 40 μM verapamil; Sf9 membranes; mean ± SEM, n=3
Use µM as the unit, but write only the number.

Here is how some compounds turned out for IC50.
{"columns": ["compound", "outputUnit", "reportedValue"],
 "data": [
  ["CC1=C(/C=C/C(C)=C/C=C/C(C)=C/CO)C(C)(C)CCC1", "µM", 27.9],
  ["CC1=C(/C=C/C(C)=C/C=C/C(C)=C\\C(=O)O)C(C)(C)CCC1 [13-cis-retinoic acid]", "µM", 26.8]
]}

For the next question, use this compound.
Query: Can you look up the measured IC50 of CC(=O)OC/C=C(C)/C=C/C=C(C)/C=C/C1=C(C)CCCC1(C)C [Retinyl-acetate] for me?
Reply: 19.1

---

studySystem: Pgp (Homo sapiens)
testName: biochemical
cond: IC50 values, Pgp basal ATPase activity, Sf9 membranes, 10 min pre-incubation 37 °C, 3 mM ATP/Mg2+ 25 min; mean ± SEM, n=3
reportedMetric: pIC50
Scale note: pIC50 = -log10(concentration in M).

{"columns": ["compound", "pIC50"],
 "data": [
  ["CC1=C(/C=C/C(C)=C/C=C/C(C)=C\\C(=O)O)C(C)(C)CCC1 [13-cis-retinoic acid]", 4.22]
]}

Query: Look up pIC50: CC1=C(/C=C/C(C)=C/C=C/C(C)=C/CO)C(C)(C)CCC1
Reply: 4.63
